- System: SF-268
- protocol: NCI tumour cell line growth inhibition, 48 h
Active and inactive are the calls of the source. Rule as the data show it: active = GI50 up to about 1.1 µM and inactive = higher.
Your response should consist of one outcome taken from true = active, false = inactive

For orientation, consider the following solved cases.
>  <compound>
COc1ccc(CCNC(=O)Cc2ccccc2CO)cc1OC

>  <tested-target>
SF-268

>  <group>
false

$$$$
>  <compound>
O=C(OCC(Cl)(Cl)Cl)N1CC[C@@H](C2CCCCC2)C1

>  <tested-target>
SF-268

>  <group>
false

$$$$
>  <compound>
CC1OC(CO)(n2cnc3c(N)ncnc32)C(O)C1O (stereo unspecified)

>  <tested-target>
SF-268

>  <group>
false

$$$$

## Task Fill in: this test's call for O=c1c(Cl)c(Cl)c(=O)c2sc3cc(Cl)ccc3[nH]c1=2 is ___
## Result false

## Task Fill in: this test's call for Cc1ccc(SC2=C(N(C)C)C(=O)c3ccccc3C2=O)cc1 is ___
## Result false

## Task Fill in: this test's call for NC(=O)CCC(NC(=O)Cc1ccccc1)C(=O)O.NC(CCC(=O)NC(=O)Cc1ccccc1)C(=O)O (stereo unspecified) is ___
## Result false

## Task Fill in: this test's call for Cc1ccccc1C(=O)Oc1ccc(OCc2ccccc2)cc1 is ___
## Result false

## Task Fill in: this test's call for CC(=O)OC1C(O)C(C)OC(OC(=O)C2CCC3C(C2)OC2(CC(OC(=O)/C=C/c4ccccc4)C(C)CO2)C32CO2)C1OC1OC(C)C(O)C(O)C1O (stereo unspecified) is ___
## Result true

## Task Fill in: this test's call for CCOc1cc(C(c2c(O)c3ccccc3oc2=O)c2c(O)c3ccccc3oc2=O)ccc1OC is ___
## Result false

## Task Fill in: this test's call for O=c1[nH][nH]c(=S)c(=O)[nH]1 is ___
## Result false

## Task Fill in: this test's call for COc1ccc2c(c1)c1nn(CCN3CCCCC3)c3ccc4c(=O)n(CCN(C)C)c(=O)n2c4c13 is ___
## Result true

Entry source: ChEMBL document CHEMBL1201862
